B1: library; numbered along this chain (parent)
chain: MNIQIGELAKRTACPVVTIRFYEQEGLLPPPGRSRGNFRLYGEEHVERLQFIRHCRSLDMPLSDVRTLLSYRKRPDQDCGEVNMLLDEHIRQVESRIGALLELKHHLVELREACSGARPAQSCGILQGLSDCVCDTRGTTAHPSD

Variants of: B1
Assay: sfGFP reporter fluorescence (15 h) (µM FITC); higher = stronger transcriptional activation
Details: library round: Round 1; ligand: 1 µM Pb
Outcome measure: sfGFP reporter fluorescence
Form field (numeric): enter value without unit.

Req: Indicate the recorded sfGFP reporter fluorescence value for this variant: N83M D135A
Resp: 0.102

Req: Please supply the value of reported sfGFP reporter fluorescence for the item M60L D64K K104V L107C G128I
Resp: 2.02

Req: Answer with the recorded sfGFP reporter fluorescence of N83T K104R D135K only.
Resp: 0.0845

Req: Look up sfGFP reporter fluorescence of D64T G128I D135A and report it.
Resp: 0.801

Req: Indicate the recorded sfGFP reporter fluorescence value for this variant: P61D D64K
Resp: 0.454

Req: Given P61N C134M , respond with its sfGFP reporter fluorescence.
Resp: 0.233

Req: Tell me its sfGFP reporter fluorescence given P30A V46R as the entry.
Resp: 0.0716

Req: Output sfGFP reporter fluorescence of D64T E88A C134E
Resp: 0.238

Req: Please give the documented sfGFP reporter fluorescence of M60L P61N D64K D131C
Resp: 0.7

Req: Complete the entry with sfGFP reporter fluorescence for N83S R111D
Resp: 0.0665

Req: Consider the variant N83T C134A . State its measured sfGFP reporter fluorescence.
Resp: 0.0716

Req: Note down sfGFP reporter fluorescence recorded for N83S D131A D135A
Resp: 0.082

Req: Output measured sfGFP reporter fluorescence for this item: P61L K104V
Resp: 0.0617

Req: Return sfGFP reporter fluorescence for the following variant: P61N L68F I90T
Resp: 0.0958

Req: In one line, give reported sfGFP reporter fluorescence of the entry L129V D135A .
Resp: 0.0619

Req: Please supply the value of reported sfGFP reporter fluorescence for the item N83S V108N
Resp: 0.0665

Req: Give me measured sfGFP reporter fluorescence, please, for this variant: N83T R111D
Resp: 0.06

Req: Using the record for D131H P143Y , state its measured sfGFP reporter fluorescence.
Resp: 0.0797

Req: Output sfGFP reporter fluorescence of D64A R111L
Resp: 0.105

Req: Identify measured sfGFP reporter fluorescence corresponding to N83T D131M D135A
Resp: 0.0837

Req: Name the recorded sfGFP reporter fluorescence of the variant listed here: K104A G128M
Resp: 0.109

Req: Provide measured sfGFP reporter fluorescence value, entry: D135A P143T
Resp: 0.0756

Req: Input D87S , output reported sfGFP reporter fluorescence.
Resp: 0.0699

Req: Query sfGFP reporter fluorescence for N83F P143K
Resp: 0.0718

Req: Provide one value: measured sfGFP reporter fluorescence of N83T L107E
Resp: 0.0635

Req: Tell me its sfGFP reporter fluorescence given M84A I97G as the entry.
Resp: 0.0617
